Just for reference, patent US8574831B2 is where these values come from.

# Test system: HIV with mutations in the HIV protease sequence
# ASSAY DETAILS: Phenotypic fold resistance to protease inhibitors, protease mutations 84A/84L/84C/54M/54L/54V in a background (Examples 8-13)
# Assay type: cell-based, HIV-1
# EXPERIMENTAL PARAMETERS: Table 12, V052977, genotype 10I + 33F + 54M
Classification field: 1 (yes) = Fold change in IC50 at or over 10 fold; 0 (no) = Fold change in IC50 under 10 fold.

Use the examples below as a reference point.
{"MOLECULE": "CC(C)c1nc(CN(C)C(=O)N[C@H](C(=O)N[C@@H](Cc2ccccc2)C[C@H](O)[C@H](Cc2ccccc2)NC(=O)OCc2cncs2)C(C)C)cs1 [Ritonavir, ritonavir]", "CLASSIFICATION": "1 (yes)"}
{"MOLECULE": "Cc1c(O)cccc1C(=O)N[C@@H](CSc1ccccc1)[C@H](O)CN1C[C@H]2CCCC[C@H]2C[C@H]1C(=O)NC(C)(C)C [Nelfinavir, nelfinavir]", "CLASSIFICATION": "0 (no)"}
{"MOLECULE": "CC(C)(C)NC(=O)[C@@H]1C[C@@H]2CCCC[C@@H]2CN1C[C@@H](O)[C@H](Cc1ccccc1)NC(=O)[C@H](CC(N)=O)NC(=O)c1ccc2ccccc2n1 [Saquinavir, saquinavir]", "CLASSIFICATION": "0 (no)"}
{"MOLECULE": "CC(C)CN(C[C@@H](O)[C@H](Cc1ccccc1)NC(=O)O[C@H]1CCOC1)S(=O)(=O)c1ccc(N)cc1 [Amprenavir, amprenavir]", "CLASSIFICATION": "1 (yes)"}

Lab note: next molecule to report on.
Is Fold change in IC50 for CC(C)(C)NC(=O)[C@@H]1CN(Cc2cccnc2)CCN1C[C@@H](O)C[C@@H](Cc1ccccc1)C(=O)N[C@H]1c2ccccc2C[C@H]1O [Indinavir, indinavir] at or above 10 fold?
0 (no)

###

# Test system: HIV with mutations in the HIV protease sequence
# ASSAY DETAILS: Phenotypic fold resistance to protease inhibitors, protease mutations 84A/84L/84C/54M/54L/54V in a background (Examples 8-13)
# Type: cell-based, HIV-1
# EXPERIMENTAL PARAMETERS: Virco ID V052951; genotype 33F + 77I; vs mean IC50 of wild type laboratory HIV strain
MEASURED ENDPOINT: Fold change in IC50 (fold)
Only the number, expressed in fold, is required.

Take a look at these entries with their results.
{"SMILES ENTRY": "CC(C)(C)NC(=O)[C@@H]1C[C@@H]2CCCC[C@@H]2CN1C[C@@H](O)[C@H](Cc1ccccc1)NC(=O)[C@H](CC(N)=O)NC(=O)c1ccc2ccccc2n1", "READOUT UNIT": "fold", "Fold change in IC50": 0.4}
{"SMILES ENTRY": "Cc1c(O)cccc1C(=O)N[C@@H](CSc1ccccc1)[C@H](O)CN1C[C@H]2CCCC[C@H]2C[C@H]1C(=O)NC(C)(C)C", "READOUT UNIT": "fold", "Fold change in IC50": 5.2}
{"SMILES ENTRY": "CC(C)c1nc(CN(C)C(=O)N[C@H](C(=O)N[C@@H](Cc2ccccc2)C[C@H](O)[C@H](Cc2ccccc2)NC(=O)OCc2cncs2)C(C)C)cs1", "READOUT UNIT": "fold", "Fold change in IC50": 0.3}
{"SMILES ENTRY": "CC(C)CN(C[C@@H](O)[C@H](Cc1ccccc1)NC(=O)O[C@H]1CCOC1)S(=O)(=O)c1ccc(N)cc1", "READOUT UNIT": "fold", "Fold change in IC50": 0.3}

Next item in the queue.
Fill in reported Fold change in IC50 for this entry: CC(C)(C)NC(=O)[C@@H]1CN(Cc2cccnc2)CCN1C[C@@H](O)C[C@@H](Cc1ccccc1)C(=O)N[C@H]1c2ccccc2C[C@H]1O
0.4

###

# Tested on: HIV with mutations in the HIV protease sequence
# ASSAY DETAILS: Phenotypic fold resistance to protease inhibitors, protease mutations 84A/84L/84C/54M/54L/54V in a background (Examples 8-13)
# Type: cell-based, HIV-1
# EXPERIMENTAL PARAMETERS: Virco ID V048877; genotype 10I + 33F + 77I + 90M; vs mean IC50 of wild type laboratory HIV strain
MEASURED ENDPOINT: Fold change in IC50 (fold)
Output spec: scalar in fold, unitless text.

{"SMILES ENTRY": "CC(C)c1nc(CN(C)C(=O)N[C@H](C(=O)N[C@@H](Cc2ccccc2)C[C@H](O)[C@H](Cc2ccccc2)NC(=O)OCc2cncs2)C(C)C)cs1", "MEASURED ENDPOINT": "Fold change in IC50", "READOUT UNIT": "fold", "TEST VALUE": 20.5}
{"SMILES ENTRY": "CC(C)(C)NC(=O)[C@@H]1C[C@@H]2CCCC[C@@H]2CN1C[C@@H](O)[C@H](Cc1ccccc1)NC(=O)[C@H](CC(N)=O)NC(=O)c1ccc2ccccc2n1", "MEASURED ENDPOINT": "Fold change in IC50", "READOUT UNIT": "fold", "TEST VALUE": 1.5}
{"SMILES ENTRY": "CC(C)CN(C[C@@H](O)[C@H](Cc1ccccc1)NC(=O)O[C@H]1CCOC1)S(=O)(=O)c1ccc(N)cc1", "MEASURED ENDPOINT": "Fold change in IC50", "READOUT UNIT": "fold", "TEST VALUE": 7.9}
{"SMILES ENTRY": "Cc1c(O)cccc1C(=O)N[C@@H](CSc1ccccc1)[C@H](O)CN1C[C@H]2CCCC[C@H]2C[C@H]1C(=O)NC(C)(C)C", "MEASURED ENDPOINT": "Fold change in IC50", "READOUT UNIT": "fold", "TEST VALUE": 9.4}

Answer with reported Fold change in IC50 of CC(C)(C)NC(=O)[C@@H]1CN(Cc2cccnc2)CCN1C[C@@H](O)C[C@@H](Cc1ccccc1)C(=O)N[C@H]1c2ccccc2C[C@H]1O
2.9

###

Below, each entry is listed with its recorded mean fold increase in resistance.
# System: HIV with mutations in the HIV protease sequence
# ASSAY DETAILS: Phenotypic fold resistance to protease inhibitors, protease mutations 84A/84L/84C/54M/54L/54V in a background (Examples 8-13)
# Format: cell-based, HIV-1
# EXPERIMENTAL PARAMETERS: Table 9 #18, protease genotype 10I + 46I + 71V + 77I
Value expressed in fold; do not type the unit.

{"SMILES ENTRY": "CC(C)c1nc(CN(C)C(=O)N[C@H](C(=O)N[C@@H](Cc2ccccc2)C[C@H](O)[C@H](Cc2ccccc2)NC(=O)OCc2cncs2)C(C)C)cs1", "mean fold increase in resistance / fold": 1.65}
{"SMILES ENTRY": "CC(C)(C)NC(=O)[C@@H]1C[C@@H]2CCCC[C@@H]2CN1C[C@@H](O)[C@H](Cc1ccccc1)NC(=O)[C@H](CC(N)=O)NC(=O)c1ccc2ccccc2n1", "mean fold increase in resistance / fold": 1.3}
{"SMILES ENTRY": "CC(C)CN(C[C@@H](O)[C@H](Cc1ccccc1)NC(=O)O[C@H]1CCOC1)S(=O)(=O)c1ccc(N)cc1", "mean fold increase in resistance / fold": 0.9}

Return reported mean fold increase in resistance for target or system HIV with mutations in the HIV protease sequence, item Cc1c(O)cccc1C(=O)N[C@@H](CSc1ccccc1)[C@H](O)CN1C[C@H]2CCCC[C@H]2C[C@H]1C(=O)NC(C)(C)C .
6.1

Print HIV with mutations in the HIV protease sequence mean fold increase in resistance for CC(C)(C)NC(=O)[C@@H]1CN(Cc2cccnc2)CCN1C[C@@H](O)C[C@@H](Cc1ccccc1)C(=O)N[C@H]1c2ccccc2C[C@H]1O .
2.2

###

# Test system: HIV with mutations in the HIV protease sequence
# ASSAY DETAILS: Phenotypic fold resistance to protease inhibitors, protease mutations 84A/84L/84C/54M/54L/54V in a background (Examples 8-13)
# Format: cell-based, HIV-1
# EXPERIMENTAL PARAMETERS: Table 9 #4, protease genotype 46I + 84V
# Text: As is the case with the genotyping assays, the recombinant virus assay starts with the amplification of viral target sequences by means of PCR. The amplicons are incorporated into a proviral laboratory clone with sequences homologous to those present in the amplicon deleted. This generates a stock of chimeric viruses. […] In the latter case, resistance is expressed as “fold-resistance” compared to a wild-type susceptible HIV-1 strain. […]
Measured mean fold increase in resistance of individual entries
API: value field is a number in fold; no unit string.

Illustrative cases are given below, each with its answer.
{"SMILES ENTRY": "CC(C)(C)NC(=O)[C@@H]1CN(Cc2cccnc2)CCN1C[C@@H](O)C[C@@H](Cc1ccccc1)C(=O)N[C@H]1c2ccccc2C[C@H]1O", "READOUT UNIT": "fold", "mean fold increase in resistance": 2.6}
{"SMILES ENTRY": "CC(C)c1nc(CN(C)C(=O)N[C@H](C(=O)N[C@@H](Cc2ccccc2)C[C@H](O)[C@H](Cc2ccccc2)NC(=O)OCc2cncs2)C(C)C)cs1", "READOUT UNIT": "fold", "mean fold increase in resistance": 4.6}

Give me measured mean fold increase in resistance, please, for this molecule: Cc1c(O)cccc1C(=O)N[C@@H](CSc1ccccc1)[C@H](O)CN1C[C@H]2CCCC[C@H]2C[C@H]1C(=O)NC(C)(C)C
5.6

Give the value of mean fold increase in resistance reported for the following: CC(C)CN(C[C@@H](O)[C@H](Cc1ccccc1)NC(=O)O[C@H]1CCOC1)S(=O)(=O)c1ccc(N)cc1
2.3

Name the recorded mean fold increase in resistance of the molecule listed here: CC(C)(C)NC(=O)[C@@H]1C[C@@H]2CCCC[C@@H]2CN1C[C@@H](O)[C@H](Cc1ccccc1)NC(=O)[C@H](CC(N)=O)NC(=O)c1ccc2ccccc2n1
2.5
